// provenance: the supplement of paper PMC10567573

Quick list: protein stability index per entry.
B1: ZNF8 (parent)
chain: SLGRHKRTHTGEKPYTCSVCGKSF

Variants of: B1
EXPERIMENT SUMMARY: protein stability index of a GFP-peptide fusion (GPS, HEK-293T) (PSI 1-6); higher = more stable;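 note: lentivirally expressed fusions sorted by FACS into six bins by GFP to DsRed ratio, PSI derived from sequencing read proportions per bin multiplied by bin number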
CONDITION SUMMARY: c terminus: a fixed tail appended

- RESIDUE STRING: "SLGEHKRTHTGEKPYTCSVCGKSF [R4E]"
  protein stability index: 4.09

Lab note: SLGRHKRTHTGEKPYTCSVCMKSF [G21M] gave protein stability index of 2.71

protein stability index reading for SLGRHKRTHTGEKPYTCSVCGISF [K22I] : 2.05

The recorded protein stability index for entry SLGRHKRTHTGEFPYTCSVCGKSF [K13F] equals 2.2

Item: SLGRHKRTHTGEKPYTCSVCGKNF [S23N] | protein stability index: 2.9

Please fill in: protein stability index reported for SLGRHKRTHTGEKPYTCSVCKKSF [G21K] = 3.36
